Each recorded value in this set is attributed to patent US20250092039A1.

SYSTEM UNDER TEST: KRAS-G12V/RAF1 (Homo sapiens (Human), UniProt P01116, G12V)
Sequence (P01116-2 other isoform, or with tags, fused parts or gaps G12V): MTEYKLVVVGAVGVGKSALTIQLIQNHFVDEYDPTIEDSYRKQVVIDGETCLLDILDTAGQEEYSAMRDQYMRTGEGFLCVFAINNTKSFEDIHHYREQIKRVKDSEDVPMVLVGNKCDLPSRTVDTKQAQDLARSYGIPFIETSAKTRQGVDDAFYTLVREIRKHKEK
EXPERIMENTAL PROTOCOL: KRAS/RAF1 binding inhibition assay (AlphaScreen)
QUANTITY: IC50

Recorded IC50, per entry:
CCc1c(F)ccc2cc(O)cc(-c3ncc4c(N5CCC[C@@H](O)CC5)nc(OCC5(CN6CCC(CN7CCN(c8ccc9c(c8)CN([C@H]8CCC(=O)NC8=O)C9=O)CC7)CC6)CC5)nc4c3F)c12 [Compound 117] ... > 200 nM
CCc1c(F)ccc2cc(O)cc(-c3ncc4c(N5CCC[C@@](C)(O)C5)nc(OCC5(CN6CC(F)(CN7CC8(CCN(c9ccc%10c(c9)CN([C@H]9CCC(=O)NC9=O)C%10=O)CC8)C7)C6)CC5)nc4c3F)c12 [Compound 68] ... > 200 nM
CCc1c(F)ccc2cc(O)cc(-c3ncc4c(N5C[C@@H]6C[C@H](C5)[C@H](O)C6)nc(OCC5(CN6CCC(CN7CCN(c8ccc9c(c8)CN([C@H]8CCC(=O)NC8=O)C9=O)CC7)CC6)CC5)nc4c3F)c12 (stereo in doubt) [Compound 96] ... > 200 nM
CCc1c(F)ccc2cc(O)cc(-c3ncc4c(N5CCC[C@]6(C5)C[C@H](O)C6)nc(OCC5(CN6CCC7(CC6)CC(CN6CCN(c8ccc9c(c8)CN([C@H]8CCC(=O)NC8=O)C9=O)CC6)C7)CC5)nc4c3F)c12 [Compound 99] ... 20 to 200 nM
CCc1c(F)ccc2cc(O)cc(-c3ncc4c(N5CCC[C@]6(CCO6)C5)nc(OCC5(CN6CCC(F)(CN7CCN(c8ccc9c(c8)CN([C@H]8CCC(=O)NC8=O)C9=O)CC7)CC6)CC5)nc4c3F)c12 [Compound 86] ... 20 to 200 nM

In plain terms, CCc1c(F)ccc2cc(O)cc(-c3ncc4c(N5CCC[C@@](C)(O)C5)nc(OCC5(CN6CC7(CCC(N8CCN(c9ccc%10c(c9)CN([C@H]9CCC(=O)NC9=O)C%10=O)CC8)CC7)C6)CC5)nc4c3F)c12 [Compound 136] has a documented IC50 of < 20 nM

IC50 in this record for CCc1c(F)ccc2cc(O)cc(-c3ncc4c(N5CCC[C@]6(C5)C[C@@H](O)C6)nc(OCC5(CN6CCC7(CC6)CC(CN6CCN(c8ccc9c(c8)CN([C@H]8CCC(=O)NC8=O)C9=O)CC6)C7)CC5)nc4c3F)c12 [Compound 100] : 20 to 200 nM

Measured IC50, CCc1cccc2cc(O)cc(-c3ncc4c(N5CCCOCC5)nc(OCC5(CN6CCC7(CC6)CC(CN6CCN(c8ccc9c(c8)CN([C@H]8CCC(=O)NC8=O)C9=O)CC6)C7)CC5)nc4c3F)c12 [Compound 109] : > 200 nM

The measured IC50 associated with CCc1c(F)ccc2cc(O)cc(-c3ncc4c(N5CCC[C@]6(CCO6)C5)nc(OCC5(CN6CCC7(CC6)CC(F)(CN6CCN(c8ccc9c(c8)CN([C@H]8CCC(=O)NC8=O)C9=O)CC6)C7)CC5)nc4c3F)c12 [Compound 214] reads 20 to 200 nM

// field: IC50; key: C[C@@]1(O)CCCN(c2nc(OCC3(CN4CCC5(CC4)CC(CN4CCN(c6ccc7c(c6)CN([C@H]6CCC(=O)NC6=O)C7=O)CC4)C5)CC3)nc3c(F)c(-c4cc(O)cc5cccc(Cl)c45)ncc23)C1 [Compound 129] ; value = 20 to 200 nM

Lab note: measured IC50 of CCc1c(F)ccc2cc(O)cc(-c3ncc4c(N5CCOCC6(CCO6)C5)nc(OCC5(CN6CCC7(CC6)CC(CN6CCN(c8ccc9c(c8)CN([C@H]8CCC(=O)NC8=O)C9=O)CC6)C7)CC5)nc4c3F)c12 (some centres unmarked) [Compound 124] was 20 to 200 nM

The reported IC50 of the compound CCc1c(F)ccc2cc(O)cc(-c3ncc4c(N5CCC[C@@](C)(O)C5)nc(OCC5(CN6CCC(OC7CCN(C8CCN(c9ccc%10c(c9)CN(C9CCC(=O)NC9=O)C%10=O)CC8)CC7)CC6)CC5)nc4c3F)c12 (some centres unmarked) [Compound 43] was < 20 nM

---

Reported DC50 values for the following compounds.
SYSTEM UNDER TEST: KRAS G12V (Homo sapiens (Human), UniProt P01116, G12V)
Sequence (P01116-2 other isoform, or with tags, fused parts or gaps G12V): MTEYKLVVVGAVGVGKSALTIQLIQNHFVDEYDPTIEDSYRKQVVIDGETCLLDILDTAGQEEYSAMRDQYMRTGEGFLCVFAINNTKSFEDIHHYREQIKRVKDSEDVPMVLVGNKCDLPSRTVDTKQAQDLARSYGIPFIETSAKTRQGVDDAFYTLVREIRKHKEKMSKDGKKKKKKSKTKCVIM
EXPERIMENTAL PROTOCOL: KRAS G12V degradation in SW620 cells (Western blot, DC50)
Assay type: cell-based
MEASUREMENT PARAMETERS: 24 hours

CCc1c(F)ccc2cc(O)cc(-c3ncc4c(N5CCC[C@@](C)(O)C5)nc(OCC5(CN6CCC(N7CCN(c8ccc9c(c8)CN([C@H]8CCC(=O)NC8=O)C9=O)CC7)CC6)CC5)nc4c3F)c12 ... < 1 nM
CCc1cccc2cc(O)cc(-c3ncc4c(N5CCC[C@@](C)(O)C5)nc(OCC5(CN6CCC(CN7CC8(CCN(c9ccc%10c(c9)CN(C9CCC(=O)NC9=O)C%10=O)CC8)C7)CC6)CC5)nc4c3F)c12 (stereo partly drawn) ... 1 to 10 nM
CCc1cccc2cc(O)cc(-c3ncc4c(N5CCC[C@@](C)(O)C5)nc(OCC5(CN6CCC7(CC6)CC(F)(CN6CCN(c8ccc9c(c8)CN([C@H]8CCC(=O)NC8=O)C9=O)CC6)C7)CC5)nc4c3F)c12 ... < 1 nM
C[C@@]1(O)CCCN(c2nc(OCC3(CN4CCC(CN5CCN(c6ccc7c(c6)CN([C@H]6CCC(=O)NC6=O)C7=O)CC5)CC4)CC3)nc3c(F)c(-c4cc(O)cc5cccc(Cl)c45)ncc23)C1 ... 1 to 10 nM
CCc1c(F)ccc2cc(N)cc(-c3ncc4c(N5CCC[C@@](C)(O)C5)nc(OCC5(CN6CCC(CN7CCN(c8ccc9c(c8)CN([C@H]8CCC(=O)NC8=O)C9=O)CC7)CC6)CC5)nc4c3F)c12 ... > 100 nM

Measured DC50 (KRAS G12V (Homo sapiens (Human), UniProt P01116, G12V)), entry CCc1cccc2cc(O)cc(-c3ncc4c(N5CCC[C@@](C)(O)C5)nc(OCC5(CN6CCC(OC7CC8(CCN(c9ccc%10c(c9)CN(C9CCC(=O)NC9=O)C%10=O)CC8)C7)CC6)CC5)nc4c3F)c12 (stereo partly drawn) : < 1 nM

---

# DC50 per entry
SYSTEM UNDER TEST: KRAS G12V (Homo sapiens (Human), UniProt P01116, G12V)
EXPERIMENTAL PROTOCOL: KRAS G12V degradation in SW620 cells (Western blot, DC50)
Assay type: cell-based
MEASUREMENT PARAMETERS: 24 hours

Here are 5 molecules together with their reported answers.
CCc1c(F)ccc2cc(O)cc(-c3ncc4c(N5CCC[C@@](C)(O)C5)nc(OCC5(CN6CCC7(CC6)CC(F)(C6CCN(c8ccc9c(c8)CN(C8CCC(=O)NC8=O)C9=O)CC6)C7)CC5)nc4c3F)c12 (stereo partly drawn) [Compound 185] ... > 100 nM
CCc1c(F)ccc2cc(O)cc(-c3ncc4c(N5CCCC6(CC(O)C6)C5)nc(OCC5(CN6CCC7(CC6)CC(CN6CCN(c8ccc9c(c8)CN([C@H]8CCC(=O)NC8=O)C9=O)CC6)C7)CC5)nc4c3F)c12 [Compound 97] ... > 100 nM
CCc1cccc2cc(O)cc(-c3ncc4c(N5CCNC(=O)CC5)nc(OCC5(CN6CCC(CN7CCN(c8ccc9c(c8)CN([C@H]8CCC(=O)NC8=O)C9=O)CC7)CC6)CC5)nc4c3F)c12 [Compound 127] ... > 100 nM
CCc1c(F)ccc2cc(O)cc(-c3ncc4c(N5CCCNC(=O)C5)nc(OCC5(CN6CCC7(CC6)CC(CN6CCN(c8ccc9c(c8)CN([C@H]8CCC(=O)NC8=O)C9=O)CC6)C7)CC5)nc4c3F)c12 [Compound 93] ... > 100 nM
CCc1c(F)ccc2cc(O)cc(-c3ncc4c(N5CCC[C@@](C)(O)C5)nc(OCC5(CN6CCC7(CC6)CC(F)(CN6CCN(c8ccc9c(c8)CN([C@H]8CCC(=O)NC8=O)C9=O)CC6)C7)CC5)nc4c3F)c12 [Compound 134] ... < 1 nM

The molecule listed as CCc1c(F)ccc2cc(O)cc(-c3ncc4c(N5CCC[C@@](C)(O)C5)nc(OCC5(CN6CC(N7CCC8(CCN(c9ccc%10c(c9)CN(C9CCC(=O)NC9=O)C%10=O)CC8)CC7)C6)CC5)nc4c3F)c12 (stereo partly drawn) [Compound 153] shows DC50 equal to < 1 nM

DC50 measured on CCc1c(F)ccc2cc(O)cc(-c3ncc4c(N5CCC[C@@](C)(O)C5)nc(OCC5(CN6CCC7(CC6)CC(C)(N6CCN(c8ccc9c(c8)CN(C8CCC(=O)NC8=O)C9=O)CC6)C7)CC5)nc4c3F)c12 (stereo partly drawn) [Compound 159] = < 1 nM

The molecule identified as CCc1c(F)ccc2cc(O)cc(-c3ncc4c(N5CCC[C@@](C)(O)C5)nc(OCC5(CN6CCC7(CC6)CN(CC6CCN(c8ccc9c(c8)CN(C8CCC(=O)NC8=O)C9=O)CC6)C7)CC5)nc4c3F)c12 (stereo partly drawn) [Compound 131] registered its DC50 at < 1 nM

Please fill in: DC50 reported for CCc1c(F)ccc2cc(O)cc(-c3ncc4c(N5CCC[C@]6(CCO6)C5)nc(OCC5(CN6CCC(C)(CN7CCN(c8ccc9c(c8)CN([C@H]8CCC(=O)NC8=O)C9=O)CC7)CC6)CC5)nc4c3F)c12 [Compound 217] = < 1 nM
